Biological target: Munc13-1 C1 domain WT (Rattus norvegicus)
Assay: In vitro [3H]PDBu binding assay, isolated Munc13-1 C1 domain
Details: read-out: Kd for PDBu; 20:80 PS/PC
measuredAttribute: Kd (nM)
The reply should contain only the number, in nM.

QUERY: Kd for CCCC(=O)O[C@@H]1[C@@H](C)[C@@]2(O)[C@@H](C=C(CO)C[C@]3(O)C(=O)C(C)=C[C@@H]23)[C@@H]2C(C)(C)[C@]12OC(=O)CCC [PDBu, Phorbol 12,13-dibutyrate] ?
RESULT: 69.5

###

Biological target: Munc13-1 C1 domain WT (Rattus norvegicus, UniProt Q62768)
Assay: In vitro [3H]PDBu binding assay, isolated Munc13-1 C1 domain
Conditions: read-out: Kd for PDBu; 5:95 PS/PC
measuredAttribute: Kd (nM)
The reply should contain only the number, in nM.

QUERY: Kd for CCCC(=O)O[C@@H]1[C@@H](C)[C@@]2(O)[C@@H](C=C(CO)C[C@]3(O)C(=O)C(C)=C[C@@H]23)[C@@H]2C(C)(C)[C@]12OC(=O)CCC [PDBu, Phorbol 12,13-dibutyrate] ?
RESULT: 82

###

Target: full-length Munc13-1 (Rattus norvegicus)
Test: In vitro [3H]PDBu binding assay, full-length Munc13-1
Conditions: read-out: Ki for PDBu; 100% PS, measured in parallel with bryostatin 1
measuredAttribute: pKi
Note: pKi values are expressed as the negative base-10 logarithm of concentration in M.

QUERY: # returns recorded pKi (system: full-length Munc13-1 (Rattus norvegicus)) for CCCC(=O)O[C@@H]1[C@@H](C)[C@@]2(O)[C@@H](C=C(CO)C[C@]3(O)C(=O)C(C)=C[C@@H]23)[C@@H]2C(C)(C)[C@]12OC(=O)CCC [PDBu, Phorbol 12,13-dibutyrate]
RESULT: 8.15

###

Target: Munc13-1 C1 W22A mutant (Rattus norvegicus, UniProt Q62768, W588A)
Assay: In vitro [3H]PDBu binding assay, Munc13-1 C1 domain W22A
Conditions: read-out: Kd for PDBu; 100:0 PS/PC
measuredAttribute: pKd
Note: pKd values are expressed as the negative base-10 logarithm of concentration in M.

QUERY: pKd for CCCC(=O)O[C@@H]1[C@@H](C)[C@@]2(O)[C@@H](C=C(CO)C[C@]3(O)C(=O)C(C)=C[C@@H]23)[C@@H]2C(C)(C)[C@]12OC(=O)CCC [PDBu, Phorbol 12,13-dibutyrate] ?
RESULT: 6.09
